Test system: human APOE RNA
assay.remarks: Dose-dependent inhibition of human APOE RNA in HepG2 cells, electroporation, 50,000 cells per well, RT-PCR normalized to GAPDH (Example 4, Tables 8-10)
Format: cell-based
experimental.setup: HepG2 cells, electroporation, 24-hour treatment, 8,000 nM, Table 8
Strand notation (5' to 3'): a small letter for the sugar, then the base; units joined by * are phosphorothioate-linked, units joined directly phosphodiester-linked; [ ] holds rarer units or linkages, { } end groups; capitals alone tell only the bases. [ms] = mesyl phosphoramidate linkage; e = 2'-O-(2-methoxyethyl) (MOE); k = constrained ethyl (cEt); [5mC] = 5-methylcytosine; d = 2'-deoxy (DNA)
measurement.name: APOE RNA (% UTC) 8,000 nM

substance	measurement.name	unit.of.measure	data.value
1778131: modified oligonucleotide complementary to human APOE RNA (eA*e[5mC]eTeTeGkG*dT*dG[ms]dA[ms]dA*dT*d[5mC]*dT*dT*dT*dA[ms]kTkT*eA*eA; antisense) [compound 1778131]	APOE RNA (% UTC) 8,000 nM	% UTC	7
1778123: modified oligonucleotide complementary to human APOE RNA (eA*e[5mC]eTeTeG*eG*dT*dG[ms]dA[ms]dA*dT*d[5mC]*dT*dT*dT*dA[ms]kTkT*eA*eA; antisense) [compound 1778123]	APOE RNA (% UTC) 8,000 nM	% UTC	6
1778127: modified oligonucleotide complementary to human APOE RNA (eA*e[5mC]eTeTkGkG*dT*dG[ms]dA[ms]dA*dT*d[5mC]*dT*dT*dT*dA[ms]kTeT[ms]eA[ms]eA; antisense) [compound 1778127]	APOE RNA (% UTC) 8,000 nM	% UTC	14
1785601: modified oligonucleotide complementary to human APOE RNA (k[5mC]*kT*kT*dG[ms]dG[ms]dT[ms]dG*dA[ms]dA[ms]dT*d[5mC]*dT*dT*dT*dA[ms]dT*kT*kA*dA[ms]kA; antisense) [compound 1785601]	APOE RNA (% UTC) 8,000 nM	% UTC	16

###

System: human APOE RNA
assay.remarks: Dose-dependent inhibition of human APOE RNA in HepG2 cells, electroporation, 50,000 cells per well, RT-PCR normalized to GAPDH (Example 4, Tables 8-10)
Format: cell-based
experimental.setup: 13 nM; HepG2, electroporation, 16-hour treatment
Strand notation (5' to 3'): a small letter for the sugar, then the base; units joined by * are phosphorothioate-linked, units joined directly phosphodiester-linked; [ ] holds rarer units or linkages, { } end groups; capitals alone tell only the bases. e = 2'-O-(2-methoxyethyl) (MOE); k = constrained ethyl (cEt); [5mC] = 5-methylcytosine; d = 2'-deoxy (DNA)

substance	target.system	APOE RNA (% UTC)
Compound No. 1517891: comparator of WO 2022/066956; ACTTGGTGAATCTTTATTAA, sugar eeeeeddddddddddeeeee, linkages sooosssssssssssooss (MOE gapmer, mixed PS/PO linkages, chemistry not fully specified) [reference compound]	human APOE RNA	75
1757567 (eA*e[5mC]eTeTeG*dG*dT*dG*dA*dA*dT*d[5mC]*dT*dT*dT*kAeTeT*eA*eA; antisense) [Compound 1757567]	human APOE RNA	108

###

Test system: human APOE RNA
assay.remarks: Potency (dose response, ED50) in APOE C57BL/6NTac-Apoeem7250 knock-in mice, 8 weeks (Example 15)
Assay type: in vivo
experimental.setup: cortex, ICV dose 300 μg
Strand notation (5' to 3'): a small letter for the sugar, then the base; units joined by * are phosphorothioate-linked, units joined directly phosphodiester-linked; [ ] holds rarer units or linkages, { } end groups; capitals alone tell only the bases. [ms] = mesyl phosphoramidate linkage; e = 2'-O-(2-methoxyethyl) (MOE); k = constrained ethyl (cEt); [5mC] = 5-methylcytosine; d = 2'-deoxy (DNA)

substance	APOE RNA (% control) Cortex
^mCksTksTksGdzGdzTdzGdzAdzAdzTds^mCdsTdsTdsTdsAdsTdsTksAksAdzAk (antisense k[5mC]*kT*kT*dG[ms]dG[ms]dT[ms]dG[ms]dA[ms]dA[ms]dT*d[5mC]*dT*dT*dT*dA*dT*kT*kA*dA[ms]kA) [Compound No. 1785602]	31 % control
Aes^mCeoTeoTesGesGksTdsGdzAdzAdzTds^mCdsTdsTdsTdsAdzTksTksAesAe (eA*e[5mC]eTeT*eG*kG*dT*dG[ms]dA[ms]dA[ms]dT*d[5mC]*dT*dT*dT*dA[ms]kT*kT*eA*eA) [Compound No. 1757576]	30 % control
TezTeoGeoGksTdsGdzAdzAdzTds^mCdsTdsTdsTdsAdzTksTksAesAesAes^mCe (antisense eT[ms]eTeGkG*dT*dG[ms]dA[ms]dA[ms]dT*d[5mC]*dT*dT*dT*dA[ms]kT*kT*eA*eA*eA*e[5mC]) [Compound No. 1809814]	47 % control
1785599: modified oligonucleotide complementary to human APOE RNA (k[5mC]*kT*kT*dG[ms]dG[ms]dT[ms]dG[ms]dA[ms]dA[ms]dT[ms]d[5mC]*dT*dT*dT*dA*dT*kT*kA*dA[ms]kA; antisense) [compound 1785599]	37 % control
Aks^mCeoTeoTesGesGksTdsGdzAdzAdzTds^mCdsTdsTdsTdsAdzTksTksAesAe (kA*e[5mC]eTeT*eG*kG*dT*dG[ms]dA[ms]dA[ms]dT*d[5mC]*dT*dT*dT*dA[ms]kT*kT*eA*eA) [Compound No. 1809635]	30 % control

###

The following substances are listed with their measured APOE RNA (% control) Cortex values.
Test system: human APOE RNA
assay.remarks: Activity in APOE C57BL/6NTac-Apoeem7250 knock-in mice, single ICV bolus, 20 weeks (Example 13)
Format: in vivo
experimental.setup: cortex; single ICV bolus 300 μg; 20 weeks post treatment; normalized to mouse Ppia
Strand notation (5' to 3'): a small letter for the sugar, then the base; units joined by * are phosphorothioate-linked, units joined directly phosphodiester-linked; [ ] holds rarer units or linkages, { } end groups; capitals alone tell only the bases. [ms] = mesyl phosphoramidate linkage; e = 2'-O-(2-methoxyethyl) (MOE); k = constrained ethyl (cEt); [5mC] = 5-methylcytosine; d = 2'-deoxy (DNA)

substance	APOE RNA (% control) Cortex
1785588 (k[5mC]*kT*kT*dG[ms]dG[ms]dT[ms]dG*dA*dA[ms]dT[ms]d[5mC]*dT*dT*dT*dA*dT*kT*kA*dA[ms]kA; antisense) [Compound 1785588]	40
Compound No. 1517853: comparator of WO 2022/066956; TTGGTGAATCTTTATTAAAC, sugar eeeeeddddddddddeeeee, linkages sooosssssssssssooss (MOE gapmer, mixed PS/PO linkages, chemistry not fully specified) [reference compound]	99
1736522: 6-10-4 MOE gapmer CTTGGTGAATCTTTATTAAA, linkages sooosszzssssssssoss (e[5mC]*eTeTeGeG*eT*dG[ms]dA[ms]dA*dT*d[5mC]*dT*dT*dT*dA*dT*eTeA*eA*eA) [compound 1736522]	64

###

The following substances are listed with their measured APOE RNA (% control) Spinal Cord values.
System: human APOE RNA
assay.remarks: Duration of action study in APOE C57BL/6NTac-Apoeem7250 knock-in mice (Example 18)
Type: in vivo
experimental.setup: spinal cord; 196 days post-dose; single ICV bolus 300 μg; APOE knock-in mice; normalized to mouse Ppia; relative to PBS
Strand notation (5' to 3'): a small letter for the sugar, then the base; units joined by * are phosphorothioate-linked, units joined directly phosphodiester-linked; [ ] holds rarer units or linkages, { } end groups; capitals alone tell only the bases. [ms] = mesyl phosphoramidate linkage; e = 2'-O-(2-methoxyethyl) (MOE); k = constrained ethyl (cEt); [5mC] = 5-methylcytosine; d = 2'-deoxy (DNA)

substance	APOE RNA (% control) Spinal Cord
TezTeoGeoGksTdsGdzAdzAdzTds^mCdsTdsTdsTdsAdzTksTksAesAesAes^mCe (antisense eT[ms]eTeGkG*dT*dG[ms]dA[ms]dA[ms]dT*d[5mC]*dT*dT*dT*dA[ms]kT*kT*eA*eA*eA*e[5mC]) [Compound No. 1809814]	57
^mCksTksTksGdzGdzTdzGdzAdzAdzTds^mCdsTdsTdsTdsAdsTdsTksAksAdzAk (antisense k[5mC]*kT*kT*dG[ms]dG[ms]dT[ms]dG[ms]dA[ms]dA[ms]dT*d[5mC]*dT*dT*dT*dA*dT*kT*kA*dA[ms]kA) [Compound No. 1785602]	34
Aes^mCeoTeoTesGesGksTdsGdzAdzAdzTds^mCdsTdsTdsTdsAdzTksTksAesAe (eA*e[5mC]eTeT*eG*kG*dT*dG[ms]dA[ms]dA[ms]dT*d[5mC]*dT*dT*dT*dA[ms]kT*kT*eA*eA) [Compound No. 1757576]	28
Aks^mCeoTeoTesGesGksTdsGdzAdzAdzTds^mCdsTdsTdsTdsAdzTksTksAesAe (kA*e[5mC]eTeT*eG*kG*dT*dG[ms]dA[ms]dA[ms]dT*d[5mC]*dT*dT*dT*dA[ms]kT*kT*eA*eA) [Compound No. 1809635]	33

Each recorded value in this set is attributed to patent US20250353873A1.
